What follows is a record of log10 of Ki for 72 kDa type IV collagenase (Homo sapiens, UniProt P08253).
MEASURED PROPERTY: log10 of Ki (log10 of the value in nM)

{"SMILES REPRESENTATION": "CNC(=O)[C@H](Cc1c[nH]c2ccccc12)NC(=O)[C@@H](CC(=O)NOCc1ccccc1)CC(C)C", "MEASURED PROPERTY": "log10 of Ki", "MEASURED": 1.04}
{"SMILES REPRESENTATION": "CCCCCC[C@H](CC(=O)NO)C(=O)N[C@@H](Cc1c[nH]c2ccccc12)C(=O)NC", "MEASURED PROPERTY": "log10 of Ki", "MEASURED": -0.68}
{"SMILES REPRESENTATION": "CC(C)C[C@H](CC(=O)NO)C(=O)N[C@@H](Cc1c[nH]c2ccccc12)C(=O)NC1CCCC1", "MEASURED PROPERTY": "log10 of Ki", "MEASURED": 0.41}
{"SMILES REPRESENTATION": "CC(C)C[C@H](CC(=O)NO)C(=O)N[C@H](Cc1ccncc1)C(=O)NCCc1ccc(O)cc1", "MEASURED PROPERTY": "log10 of Ki", "MEASURED": 0.28}
{"SMILES REPRESENTATION": "CC(C)C[C@H](CC(=O)NO)C(=O)N[C@@H](Cc1c[nH]c2ccccc12)C(=O)NCCO", "MEASURED PROPERTY": "log10 of Ki", "MEASURED": -0.36}
{"SMILES REPRESENTATION": "CC(C)C[C@H](CC(=O)NO)C(=O)N[C@@H](Cc1c[nH]c2ccccc12)C(=O)NCc1ccccn1", "MEASURED PROPERTY": "log10 of Ki", "MEASURED": -0.27}
{"SMILES REPRESENTATION": "CC(C)C[C@H](CC(=O)NO)C(=O)N[C@H](Cc1ccncc1)C(=O)N[C@@H](C)c1ccccc1", "MEASURED PROPERTY": "log10 of Ki", "MEASURED": 0.28}
{"SMILES REPRESENTATION": "CNC(=O)[C@@H](Cc1cnc2ccccc2c1)NC(=O)[C@@H](CC(=O)NO)CC(C)C", "MEASURED PROPERTY": "log10 of Ki", "MEASURED": 0.00}
{"SMILES REPRESENTATION": "CNC(=O)[C@@H](CC(C)C)NC(=O)[C@@H](CC(=O)NO)CC(C)C", "MEASURED PROPERTY": "log10 of Ki", "MEASURED": 0.04}
{"SMILES REPRESENTATION": "CNC(=O)[C@H](Cc1c[nH]c2ccccc12)NC(=O)[C@@H](CC(=O)NOCC(=O)OC)CC(C)C", "MEASURED PROPERTY": "log10 of Ki", "MEASURED": 4.85}
{"SMILES REPRESENTATION": "CC(C)C[C@H](CC(=O)NO)C(=O)N[C@H](Cc1ccc2ccccc2c1)C(=O)NCc1ccccc1", "MEASURED PROPERTY": "log10 of Ki", "MEASURED": 1.26}
{"SMILES REPRESENTATION": "CNC(=O)[C@H](Cc1c[nH]c2ccccc12)NC(=O)[C@@H](CC(=O)NO)OC(C)C", "MEASURED PROPERTY": "log10 of Ki", "MEASURED": 1.62}
{"SMILES REPRESENTATION": "CC(C)C[C@H](CC(=O)NO)C(=O)N[C@@H](Cc1c[nH]c2ccccc12)C(=O)NCCc1ccccn1", "MEASURED PROPERTY": "log10 of Ki", "MEASURED": -0.14}
{"SMILES REPRESENTATION": "CNC(=O)[C@@H](Cc1ccc(-c2ccccc2)cc1)NC(=O)[C@@H](CC(=O)NO)CC(C)C", "MEASURED PROPERTY": "log10 of Ki", "MEASURED": 0.60}
